Each recorded value in this set is attributed to patent US20220220128A1.

List of IC50 tested on human RET kinase (Homo sapiens, UniProt P07949).
Sequence (P07949 29-1114): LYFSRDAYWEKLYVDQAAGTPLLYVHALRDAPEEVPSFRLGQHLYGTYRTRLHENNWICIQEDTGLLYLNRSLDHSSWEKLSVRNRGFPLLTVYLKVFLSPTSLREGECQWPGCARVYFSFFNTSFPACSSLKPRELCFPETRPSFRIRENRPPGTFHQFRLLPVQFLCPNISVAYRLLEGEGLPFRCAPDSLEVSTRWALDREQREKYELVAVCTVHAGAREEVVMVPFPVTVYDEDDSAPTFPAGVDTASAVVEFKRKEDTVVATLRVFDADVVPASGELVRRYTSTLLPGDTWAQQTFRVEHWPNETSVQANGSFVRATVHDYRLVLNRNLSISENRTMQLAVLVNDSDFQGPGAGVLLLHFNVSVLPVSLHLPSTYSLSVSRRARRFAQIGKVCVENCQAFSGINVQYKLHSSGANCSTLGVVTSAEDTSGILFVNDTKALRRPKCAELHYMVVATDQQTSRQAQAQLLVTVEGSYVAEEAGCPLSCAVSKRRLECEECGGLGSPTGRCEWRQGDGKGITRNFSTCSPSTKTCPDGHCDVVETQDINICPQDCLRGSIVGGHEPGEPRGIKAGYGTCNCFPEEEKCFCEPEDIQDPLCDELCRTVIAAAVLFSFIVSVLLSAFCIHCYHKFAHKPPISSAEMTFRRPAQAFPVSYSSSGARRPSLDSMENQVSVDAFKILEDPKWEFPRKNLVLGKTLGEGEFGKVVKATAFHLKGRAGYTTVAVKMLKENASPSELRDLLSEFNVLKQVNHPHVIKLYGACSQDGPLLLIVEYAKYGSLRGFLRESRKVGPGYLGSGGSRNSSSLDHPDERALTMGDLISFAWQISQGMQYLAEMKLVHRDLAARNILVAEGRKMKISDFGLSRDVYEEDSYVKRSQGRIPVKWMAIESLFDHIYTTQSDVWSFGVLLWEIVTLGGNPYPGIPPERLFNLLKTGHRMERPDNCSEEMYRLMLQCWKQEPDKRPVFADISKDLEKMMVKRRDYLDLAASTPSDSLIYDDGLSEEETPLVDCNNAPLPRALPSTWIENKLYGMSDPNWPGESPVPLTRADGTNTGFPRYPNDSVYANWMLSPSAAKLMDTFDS

For record COc1ccc(CN2C[C@@H]3CN(c4ccc(-c5cc(-c6cnn(C)c6)cn6ncc(C#N)c56)cn4)C[C@@H]3C2)cn1 [Example 12] the listed IC50 is ≤ 0.01 µM

In plain terms, Cn1ccc(-c2cc(-c3ccc(N4C[C@@H]5C[C@@](O)(Cc6ccccn6)C[C@@H]5C4)nc3)c3c(C#N)cnn3c2)n1 [Example 105] has a documented IC50 of ≤ 0.01 µM

# compound COc1cccnc1C(=O)NC[C@@H]1[C@H]2CN(c3ccc(-c4cc(-c5cnn(C)c5)cn5ncc(C#N)c45)cn3)C[C@@H]12 [Example 191] ; its IC50 = ≤ 0.01 µM

The recorded IC50 for CC(C)(O)COc1cc(-c2ccc(N3C4CC5CC3CC(NC(=O)c3ncccc3F)(C5)C4)nc2)c2c(C#N)cnn2c1 [Example 137] is ≤ 0.01 µM

Notebook: CCOc1cc(-c2ccc(N3C4CC5CC3CC(NC(=O)c3ccc(OC)nc3)(C5)C4)nc2)c2c(C#N)cnn2c1 [Example 139] , IC50 read as ≤ 0.01 µM

Sample COc1ccc(C(=O)NC[C@@H]2[C@H]3CN(c4cnc(-c5cc(OCC(C)(C)O)cn6ncc(C#N)c56)cn4)C[C@@H]23)cn1 [Example 155] ; IC50 observed: 0.05 to 0.1 µM

compound CC(C)[C@@H](O)C(=O)N[C@H]1[C@@H]2CN(c3ccc(-c4cc(-c5cnn(C)c5)cn5ncc(C#N)c45)cn3)C[C@@H]21 [Example 19] , IC50 observed: ≤ 0.01 µM

The value of IC50 measured for the compound Cn1cc(-c2cc(-c3ccc(N4C5CC6CC4CC(NC(=O)OC(C)(C)C)(C6)C5)nc3)c3c(C#N)cnn3c2)cn1 [Example 180] turned out to be ≤ 0.01 µM

The compound COc1ccc(CN2C[C@@H]3CN(c4cnc(-c5cc(OCC(C)(C)O)cn6ncc(C#N)c56)cn4)C[C@@H]3C2)cn1 [Example 120] showed IC50 equal to ≤ 0.01 µM

So for CC(C)C(=O)N1C[C@@H]2CN(c3ccc(-c4cc(-c5cnn(C)c5)cn5ncc(C#N)c45)cn3)C[C@@H]2C1 [Example 10] , the logged IC50 turned out to be ≤ 0.01 µM

IC50 in this record for Cn1cc(-c2cc(-c3ccc(N4C[C@@H]5[C@@H](CNC(=O)c6c(F)cccc6Cl)[C@@H]5C4)nc3)c3c(C#N)cnn3c2)cn1 [Example 83] : ≤ 0.01 µM

Lab note: Cn1cc(-c2cc(-c3ccc(N4C[C@@H]5[C@H](C4)[C@H]5NS(=O)(=O)c4c(F)cccc4Cl)nc3)c3c(C#N)cnn3c2)cn1 [Example 46] gave IC50 of ≤ 0.01 µM

Recorded result, COc1ccc(C(=O)NC23CC4CC(C2)N(c2ccc(-c5cc(-c6cnn(C)c6)cn6ncc(C#N)c56)cn2)C(C4)C3)cn1 [Example 188] , IC50: ≤ 0.01 µM

Kindly note the recorded IC50 for CCOc1cc(-c2cnc(N3C4CC5CC3CC(C(=O)Nc3ccc(OC)nc3)(C5)C4)cn2)c2c(C#N)cnn2c1 [Example 170] , which is ≤ 0.01 µM

IC50 for COc1cncc(C(=O)N[C@]2(C)C[C@H]3CN(c4cnc(-c5cc(-c6cnn(C)c6)cn6ncc(C#N)c56)cn4)C[C@H]3C2)c1 [Example 148] is ≤ 0.01 µM

Reported IC50 of COc1ccc(C(=O)N[C@]2(C)C[C@H]3CN(c4ccc(-c5cc(OCC(C)(C)O)cn6ncc(C#N)c56)cn4)C[C@H]3C2)cn1 [Example 126] : 0.01 to 0.05 µM

Measured IC50, Cn1cc(-c2cc(-c3ccc(N4C[C@H]5CN(C(=O)C(O)c6ccccc6)C[C@H]5C4)nc3)c3c(C#N)cnn3c2)cn1 (some centres unmarked) [Example 3] : ≤ 0.01 µM

Per the record, Cc1ccc(F)cc1C(=O)N[C@H]1[C@@H]2CN(c3ccc(-c4cc(-c5cnn(C)c5)cn5ncc(C#N)c45)cn3)C[C@@H]21 [Example 26] has IC50 of ≤ 0.01 µM

Sample COc1ccc(CN[C@H]2[C@@H]3CN(c4ccc(-c5cc(-c6cnn(C)c6)cn6ncc(C#N)c56)cn4)C[C@@H]32)cn1 [Example 33] ; IC50 observed: ≤ 0.01 µM

Form: compound = CC(=O)NC12CC3CC(C1)N(c1ccc(-c4cc(OCC(C)(C)O)cn5ncc(C#N)c45)cn1)C(C3)C2 [Example 130] ; IC50 = ≤ 0.01 µM

So, COc1ccc(C(=O)N[C@]2(C)C[C@H]3CN(c4ccc(-c5cc(-c6ccn(C)n6)cn6ncc(C#N)c56)cn4)C[C@H]3C2)cn1 [Example 122] ? Its IC50 was ≤ 0.01 µM

The compound identified as CC(C)(O)COc1cc(-c2cnc(N3C[C@H]4CN(Cc5ccc(C#N)nc5)C[C@H]4C3)cn2)c2c(C#N)cnn2c1 [Example 177] registered its IC50 at 0.05 to 0.1 µM

IC50 reported for this compound COc1cncc(C(=O)NC[C@@H]2[C@H]3CN(c4ccc(-c5cc(-c6cnn(C)c6)cn6ncc(C#N)c56)cn4)C[C@@H]23)c1 [Example 192] : ≤ 0.01 µM
